- System: Leishmania donovani
- measurement_notes: Antileishmanial activity against Leishmania donovani amastigotes
- Assay type: functional, organism-based
- measurement_setup: Leishmania donovani; read-out: IC50
measured_endpoint: IC50 (µg/mL)

Recorded IC50, per entry:
{"compound": "FC(F)(F)c1ccc(OC(Cn2ccnc2)c2ccccc2)cc1 (centres undefined)", "measured_endpoint": "IC50", "scale_unit": "µg/mL", "data_value": 2.05}
{"compound": "C[C@@H](Cn1ccnc1)[C@@H](Oc1ccccc1[N+](=O)[O-])c1ccccc1 (relative stereo)", "measured_endpoint": "IC50", "scale_unit": "µg/mL", "data_value": 2.27}
{"compound": "CC(CCn1ccnc1)Oc1ccccc1[N+](=O)[O-] (centres undefined)", "measured_endpoint": "IC50", "scale_unit": "µg/mL", "data_value": 8.43}
{"compound": "O=[N+]([O-])c1ccc(OC(CCn2ccnc2)c2ccccc2)c(F)c1 (centres undefined)", "measured_endpoint": "IC50", "scale_unit": "µg/mL", "data_value": 2.83}
{"compound": "FC(F)(F)c1ccc(OC(COc2ccccc2)Cn2ccnc2)cc1 (centres undefined)", "measured_endpoint": "IC50", "scale_unit": "µg/mL", "data_value": 0.56}

I: O=[N+]([O-])c1ccccc1OC(CCn1ccnc1)c1ccccc1 (centres undefined)
II: O=[N+]([O-])c1ccc(OC(CCn2ccnc2)c2ccccc2)cc1 (centres undefined)
III: N=C(N)c1ccc(OCCCCCOc2ccc(C(=N)N)cc2)cc1
IV: C[C@@H](Cn1ccnc1)[C@@H](Oc1ccc(C(F)(F)F)cc1)c1ccccc1 (relative stereo)
INPUT: List these items ordered by IC50, big to small. List the labels according to the requested ordering.
OUTPUT: III, II, IV, I
(III: 12.1 µg/mL, II: 3.82 µg/mL, IV: 1.85 µg/mL, I: 0.48 µg/mL)

P: FC(F)(F)c1ccc(OC(CCn2ccnc2)c2ccccc2)cc1 (centres undefined)
Q: O=[N+]([O-])c1ccccc1OC(Cn1ccnc1)c1ccccc1 (centres undefined)
INPUT: Param metric = IC50; output whichever of P , Q has the minimum value. Field: selected label. Fill in the label of the entry you choose.
OUTPUT: P

====

- measurement_notes: Cytotoxicity against mouse J774A1 cells by MTT assay
- Assay type: cell-based, J774.A1
measured_endpoint: CC50 (µg/mL)
All answers are understood in µg/mL, so give the number only.

Recorded CC50, per entry:
{"compound": "CC(CCn1ccnc1)Oc1ccc([N+](=O)[O-])cc1F (stereo not given)", "CC50 (µg/mL)": 15}
{"compound": "O=[N+]([O-])c1ccc(OC(CCn2ccnc2)c2ccccc2)c(F)c1 (stereo not given)", "CC50 (µg/mL)": 25.1}
{"compound": "CC(CCn1ccnc1)Oc1ccc(C(F)(F)F)cc1 (stereo not given)", "CC50 (µg/mL)": 7.5}
{"compound": "C[C@@H]1[C@H](O)[C@@H](C)/C=C/C=C/C=C/C=C/C=C/C=C/C=C/[C@H](O[C@@H]2O[C@H](C)[C@@H](O)[C@H](N)[C@@H]2O)C[C@@H]2O[C@](O)(C[C@@H](O)C[C@@H](O)[C@H](O)CC[C@@H](O)C[C@@H](O)CC(=O)O[C@H]1C)C[C@H](O)[C@H]2C(=O)O", "CC50 (µg/mL)": 7.24}
{"compound": "O=[N+]([O-])c1ccc(OC(COc2ccccc2)Cn2ccnc2)c(F)c1 (stereo not given)", "CC50 (µg/mL)": 29.6}
{"compound": "O=[N+]([O-])c1ccccc1OC(CCn1ccnc1)c1ccccc1 (stereo not given)", "CC50 (µg/mL)": 18}

INPUT: Would you mind telling me what CC50 value was observed for O=[N+]([O-])c1ccc(OC(Cn2ccnc2)c2ccccc2)cc1 (stereo not given) ?
OUTPUT: 25.2
